- Read-out: Secreted IgG (sIgG), gene 3500
- PROTOCOL_NOTES: BSK_BT_sIgG: BioMAP Diversity Plus: BT Assay for Secreted IgG (sIgG) Biomarker Activity (AID 2284226)
- MEASUREMENT_CONTEXT: primary human B cells with PBMC
Calls of active or inactive are those of the source. How the source made its calls: active means hit-call score of the fitted dose curve at least 0.9, where 1 is the maximum; inactive means score below 0.9.
Allowed answers: yes (active), no (inactive)

# COMPOUND, CLASSIFICATION
records = [
    ("CCCCCCC(O)CCCCCCCCCCC(=O)OC (stereo unspecified)", "no"),
    ("COC(=O)/C=C\\C(=O)OC", "yes"),
    ("CN(C)CCC(c1ccc(Cl)cc1)c1ccccn1 (stereo unspecified)", "no"),
    ("CCCCCCCCCCCCCCCCCC[N+](C)(C)C", "yes"),
    ("Oc1cccc2ccccc12", "no"),
    ("O=C(C(=O)c1ccccc1)c1ccccc1", "no"),
    ("CCCCCCCCCC/C=C/C1CC(=O)OC1=O (stereo unspecified)", "no"),
    ("Sc1nc2ccccc2s1", "no"),
]

// outcome(item) with item = CC[N+](CC)(CC(=O)Nc1c(C)cccc1C)Cc1ccccc1
no

What would you report for Cc1cc(-n2nc3ccc(Cl)cc3n2)c(O)c(C(C)(C)C)c1 ?
no

Repeat with CN(C)c1ccc(C(c2ccccc2)c2ccc(N(C)C)cc2)cc1
yes
